The values you see were collected from patent US20250179160A1.

- TESTED_TARGET: T1, recombinant human mature Factor D (human, UniProt P00746 26-253)
- T1 construct: also called mature CFD; hCFD
- TEST_DETAILS: BLI (Octet ForteBio), 20 nM human IgG4 antibody on anti-human sensors, antigen 111 nM
This section presents binders with their documented Kd values.
Answer in nM, number only, no unit symbol.

# annotated cases, reported Kd shown
{"BINDER": "6G6, purified recombinant, human IgG4 (antibody, V domains shown, Mouse variable regions on human IgG4 (S228P) and human kappa constant regions) VH: QITLKESGPGILQSSQTLSLTCSFSGISLTTSGMGVSWIRQPSGKGLEWLAHIYWDDEKHYHPSLKSRLTISKDASRNQVFFRILSVDTADTATYYCALRYYGYRSFMDYWGQGTSVTVSS VL: DVLMTQSPLSLPVSLGDQASIFCRSNQSIVHSNGNTYFEWYLQKPGQSPKLLIYKVSNRFSGVPDRFSGSGSGTDFTLRISRVEAEDLGVYYCFQGSHVPPTFGGGTKLEIKR", "NUMERIC_VALUE": 14.3}
{"BINDER": "27B3, purified recombinant, human IgG4 (antibody, V domains shown, Mouse variable regions on human IgG4 (S228P) and human kappa constant regions) VH: QVTLKESGPGILQSSQTLSLTCSFSGISLNISGMGVSWIRQPSGKGLEWLAHIYWDDEKHYNPSLKRRLTISKDASRNQVFFRISSVDSADTATYYCALRYYGYGSIMDYWGHGTSVTVSS VL: DVLMTQTPLSLPVSLGDQASISCRSSQSIVHSNGNTYFEWYLQKPGQSPKLLIYKVSNRFSGVPDRFSGSGSGTDFTLKISRVEAEDLGVYYCFQGSHVPPTFGGGTKLEIKR", "NUMERIC_VALUE": 24.1}

For the binder 49G3, purified recombinant, human IgG4 (antibody, V domains shown, Mouse variable regions on human IgG4 (S228P) and human kappa constant regions) VH: QVTLKESGPGILQSSQTLSLTCSFSGISLSSSGMGVSWIRQPSGKGLEWLAHIYWDDEKHYNPSLKSRLTISKDASRNQIFLKIISVDTADTATYYCALRYYGYNYVMHYWGQGTSVTVSS VL: DVLMTQTPLSLPVSLGDQASISCRSSQSILHSNGNTYFEWYLQKPGQSPKLLIYKVSNRFSGVPDRFSGSGSGTDFTLKISRVEAEDLGVYYCFQGSHVPPTFGGGTKLEIKR , what Kd is on record?
2.3
